The measured values listed here are drawn from paper PMC5967865.

target-or-system: Human GlyT1 (human) (UniProt P48067)
Sequence (P48067 whole entry): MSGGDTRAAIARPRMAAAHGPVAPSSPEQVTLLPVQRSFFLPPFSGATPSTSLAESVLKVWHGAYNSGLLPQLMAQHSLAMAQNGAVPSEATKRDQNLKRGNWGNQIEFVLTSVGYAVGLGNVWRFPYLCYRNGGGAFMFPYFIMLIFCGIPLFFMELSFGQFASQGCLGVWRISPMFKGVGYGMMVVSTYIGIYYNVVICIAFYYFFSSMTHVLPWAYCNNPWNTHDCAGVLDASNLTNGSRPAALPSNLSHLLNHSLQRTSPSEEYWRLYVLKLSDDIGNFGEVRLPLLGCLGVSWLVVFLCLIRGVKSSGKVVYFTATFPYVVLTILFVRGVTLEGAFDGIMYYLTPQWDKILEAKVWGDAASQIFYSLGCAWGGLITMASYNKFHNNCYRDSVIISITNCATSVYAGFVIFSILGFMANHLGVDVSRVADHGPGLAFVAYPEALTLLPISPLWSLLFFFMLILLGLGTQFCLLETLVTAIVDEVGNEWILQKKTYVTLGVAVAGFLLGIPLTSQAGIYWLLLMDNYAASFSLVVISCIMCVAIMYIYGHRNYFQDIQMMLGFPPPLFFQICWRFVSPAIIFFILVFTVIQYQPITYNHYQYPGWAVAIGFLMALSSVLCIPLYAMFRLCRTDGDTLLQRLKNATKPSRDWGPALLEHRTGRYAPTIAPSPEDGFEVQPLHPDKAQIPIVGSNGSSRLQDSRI
test-summary: SPR; Biacore T200, 18°C; biotinylated GlyT1 (about 300 RU) on SA sensor, sybody up to 2 µM as analyte; 20 mM Citrate pH 6.4, 150 mM NaCl, 0.004% LMNG; 50 µl/min; 1:1 model; single cycle for Sb_GlyT1#6; KD from kinetics or from equilibrium as the column says
Give measured Kd for each item. Keep answers brief.
Numbers only, in nM.

binder	reading-unit	experimental-value
Sb_GlyT1#7 (VHH) VHH: QVQLVESGGGLVQAGGSLRLSCAASGFPVYAYEMYWYRQAPGKEREWVAAISSSGTWAGYADSVKGRFTISRDNAKNTVYLQMNSLKPEDTAVYYCNVKDWGASWAYYDYWGQGTQVTVS	nM	9.18

Now turn to the next binder.
## Input Give reported Kd value for Sb_GlyT1#3 (VHH) VHH: QVQLVESGGGLVQAGGSLRLSCAASGFPVWNNGMAWYRQAPGKEREWVAAIASRGRSTVYADSVKGRFTISRDNAKNTVYLQMNSLKPEDTAVYYCYVNVGSHYEGQGTQVTVS
## Output 154
